Target: SpBzz1-D1
Assay: SPOT peptide array binding signal intensity (averaged, normalized) (arbitrary units (background-subtracted, floor 0; scale differs between SH3 domains)); higher = stronger binding of the SH3 domain to the peptide
Reported SPOT peptide array binding signal intensity values for a set of binders
Outcome Measure: SPOT peptide array binding signal intensity

| Binder | Lt Gt Eq | Numeric Readout |
| --- | --- | --- |
| KTITLEVESSDTIDN | ≤ | 0 |
| NLKKRPPTAPQRKIS | = | 641 |
| TTNRGPPPLPPRANV | = | 3230 |
